Origin of values: patent US20240360227A1

System name: Recombinant human his-tagged IGF R extracellular domain protein (human) (UniProt P08069)
Protocol summary: SPR, Ab captured via anti-huIgG Fc, pH 7.4
Assay endpoint: log10 of koff (log10 of the value in s⁻¹)
// stored as log10 of koff expressed in s⁻¹

Report log10 of koff for VRDN-02026 (antibody, V domains shown) VH: QVQLQESGPGLVKPSETLSLTCTVSGYSITGGYLWNWIRQPPGKGLEWIGYISYDGTNNYKPSLKDRVTISRDTSKNQFSLKLSSVTAADTAVYYCARYGRVFHDYWGQGTLVTVSS VL: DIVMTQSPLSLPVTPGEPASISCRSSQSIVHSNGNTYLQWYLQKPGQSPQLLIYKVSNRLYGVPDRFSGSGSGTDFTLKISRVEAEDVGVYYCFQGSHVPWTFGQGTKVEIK please.
-4.00

Report log10 of koff for VRDN-02003 (antibody, V domains shown) VH: QVQLQESGPGLVKPSETLSLTCTVSGYHITGGYLWNWIRQPPGKGLEWIGYISYDGTNNYKPSLKDRVTISRDTSKNQFSLKLSSVTAADTAVYYCARYGRVFFDYWGQGTLVTVSS VL: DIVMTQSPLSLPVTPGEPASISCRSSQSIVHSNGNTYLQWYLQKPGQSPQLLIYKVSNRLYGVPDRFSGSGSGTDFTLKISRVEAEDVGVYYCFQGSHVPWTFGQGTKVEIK please.
-4.33

Report log10 of koff for VRDN-02069 (antibody, V domains shown) VH: QVQLQESGPGLVKPSETLSLTCTVSGYSITGGYLWNWIRQPPGKGLEWIGYISYHGTNNYKPSLKDRVTISRDTSKNQFSLKLSSVTAADTAVYYCARYGRVFFDYWGQGTLVTVSS VL: DIVMTQSPLSLPVTPGEPASISCRSSQSIVHSNGNTYLQWYLQKPGQSPQLLIYKVSNRLYGVPDRFSGSGSGTDFTLKISRVEAEDVGVYYCFQGSHVPHTFGQGTKVEIK please.
-4.82

Report log10 of koff for VRDN-02001 (antibody, V domains shown) VH: QVQLQESGPGLVKPSETLSLTCTVSHYSITGGYLWNWIRQPPGKGLEWIGYISYDGTNNYKPSLKDRVTISRDTSKNQFSLKLSSVTAADTAVYYCARYGRVFFDYWGQGTLVTVSS VL: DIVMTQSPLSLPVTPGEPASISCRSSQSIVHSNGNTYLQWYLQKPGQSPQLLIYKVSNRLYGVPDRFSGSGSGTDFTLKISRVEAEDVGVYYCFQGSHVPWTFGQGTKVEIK please.
-4.29

Report log10 of koff for VRDN-02046 (antibody, V domains shown) VH: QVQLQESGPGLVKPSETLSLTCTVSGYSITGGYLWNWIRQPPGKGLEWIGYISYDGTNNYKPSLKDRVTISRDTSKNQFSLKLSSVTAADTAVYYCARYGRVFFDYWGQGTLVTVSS VL: DIVMTQSPLSLPVTPGEPASISCRSSQSIVHSNGNTYLQWYLQKPGQSPQLLIYKVHNRLYGVPDRFSGSGSGTDFTLKISRVEAEDVGVYYCFQGSHVPWTFGQGTKVEIK please.
-4.28

Report log10 of koff for VRDN-02048 (antibody, V domains shown) VH: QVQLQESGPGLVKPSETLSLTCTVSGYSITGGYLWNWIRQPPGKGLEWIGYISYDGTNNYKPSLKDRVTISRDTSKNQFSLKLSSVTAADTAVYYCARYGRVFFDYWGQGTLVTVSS VL: DIVMTQSPLSLPVTPGEPASISCRSSQSIVHSNGNTYLQWYLQKPGQSPQLLIYKVSNHLYGVPDRFSGSGSGTDFTLKISRVEAEDVGVYYCFQGSHVPWTFGQGTKVEIK please.
-4.38

Report log10 of koff for VRDN-02066 (antibody, V domains shown) VH: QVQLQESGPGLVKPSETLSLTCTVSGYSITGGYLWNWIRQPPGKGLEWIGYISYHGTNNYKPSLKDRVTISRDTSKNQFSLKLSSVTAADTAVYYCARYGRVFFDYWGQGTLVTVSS VL: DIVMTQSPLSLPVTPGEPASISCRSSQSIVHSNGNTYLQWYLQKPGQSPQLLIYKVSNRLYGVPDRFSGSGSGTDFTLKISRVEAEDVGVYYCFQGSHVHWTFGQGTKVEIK please.
-4.51

Report log10 of koff for VRDN-02030 (antibody, V domains shown) VH: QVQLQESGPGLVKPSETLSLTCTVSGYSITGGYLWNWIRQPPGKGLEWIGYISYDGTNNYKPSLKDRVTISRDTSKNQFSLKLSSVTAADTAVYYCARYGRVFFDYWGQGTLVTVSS VL: DIVMTQSPLSLPVTPGEPASISCRHSQSIVHSNGNTYLQWYLQKPGQSPQLLIYKVSNRLYGVPDRFSGSGSGTDFTLKISRVEAEDVGVYYCFQGSHVPWTFGQGTKVEIK please.
-4.26

Report log10 of koff for VRDN-02028 (antibody, V domains shown) VH: QVQLQESGPGLVKPSETLSLTCTVSGYSITGGYLWNWIRQPPGKGLEWIGYISYDGTNNYKPSLKDRVTISRDTSKNQFSLKLSSVTAADTAVYYCARYGRVFFDHWGQGTLVTVSS VL: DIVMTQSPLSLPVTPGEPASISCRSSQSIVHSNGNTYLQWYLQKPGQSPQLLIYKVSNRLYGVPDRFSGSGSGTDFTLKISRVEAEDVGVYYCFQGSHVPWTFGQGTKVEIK please.
-4.27

Report log10 of koff for VRDN-02023 (antibody, V domains shown) VH: QVQLQESGPGLVKPSETLSLTCTVSGYSITGGYLWNWIRQPPGKGLEWIGYISYDGTNNYKPSLKDRVTISRDTSKNQFSLKLSSVTAADTAVYYCARYGHVFFDYWGQGTLVTVSS VL: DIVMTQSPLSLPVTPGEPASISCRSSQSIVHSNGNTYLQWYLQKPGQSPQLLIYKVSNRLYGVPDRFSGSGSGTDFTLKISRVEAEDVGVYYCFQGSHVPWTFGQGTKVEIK please.
-2.73
